Experiment: Plasma pharmacokinetics
Assay type: in vivo, BALB/c mice
Conditions: female, BALB/c, mouse, ip; plasma, 10 mg/kg I.P.
valueType: AUC

# return recorded AUC for entry "CN(C)c1cc[n+](CCCCCCCCCCCC[n+]2ccc(N(C)C)cc2)cc1"
1.32 µM·h

---

Assay: Plasma pharmacokinetics
Type: in vivo, BALB/c mice
Settings: female, BALB/c, mouse, po; plasma, 10 mg/kg P.O
valueType: Cmax (nM)
Answer in nM, number only, no unit symbol.

State its Cmax for this compound: CN(C)c1cc[n+](CCCCCCCCCCCC[n+]2ccc(N(C)C)cc2)cc1 [ICL-CCIC-0019]
36

---

Experiment: Plasma pharmacokinetics
Format: in vivo, BALB/c mice
Details: female, BALB/c, mouse, po; plasma, 10 mg/kg P.O
valueType: AUC (µM·h)
Give a bare numeral; the unit µM·h is implied.

Specify measured AUC for "CN(C)c1cc[n+](CCCCCCCCCCCC[n+]2ccc(N(C)C)cc2)cc1" .
0.05

---

Assay: Plasma pharmacokinetics
Assay type: in vivo, BALB/c mice
Details: female, BALB/c, mouse, plasma, po, 10 mg/kg, plasma, 10 mg/kg P.O; read-out: t1/2 (2) (converted)
Procedure: Plasma pharmacokinetic parameters of ICL-CCIC-0019 were established in female BALB/c mice aged 6–8 weeks (Harlan). Mice were intraperitoneally (i.p.) or perorally (p.o.) administered a single dose of 10 mg/kg and blood collected by cardiac puncture after 5, 15, 30 minutes and 1, 2, 4, 6 and 24 h. For tissue pharmacokinetic studies, HCT116 xenograft bearing mice were administered 10 mg/kg ICL-CCIC-0019 i.p. and blood collected after 5 minutes, 2, 6 and 24 h. […]
valueType: half-life (h)
# output: bare number, implied unit h

Identify half-life associated with the molecule "CN(C)c1cc[n+](CCCCCCCCCCCC[n+]2ccc(N(C)C)cc2)cc1"
56

---

Experiment: Plasma pharmacokinetics
Format: in vivo, BALB/c mice
Conditions: female, BALB/c, mouse, plasma, po, 10 mg/kg, plasma, 10 mg/kg P.O; read-out: t1/2 (1)
valueType: half-life (min)
Your answer should be a plain number; it is taken to be in min.

Please indicate half-life recorded for CN(C)c1cc[n+](CCCCCCCCCCCC[n+]2ccc(N(C)C)cc2)cc1 [ICL-CCIC-0019]
10

---

Test: Plasma pharmacokinetics
Format: in vivo, BALB/c mice
Conditions: female, BALB/c, mouse, plasma, ip, 10 mg/kg, plasma, 10 mg/kg I.P.; read-out: t1/2 (2) (converted)
valueType: half-life
Returns: string containing the number followed by the unit.

Supply reported half-life belonging to this compound: "CN(C)c1cc[n+](CCCCCCCCCCCC[n+]2ccc(N(C)C)cc2)cc1"
660 min

---

Target: recombinant human Δ49N CHKA2 (Homo sapiens, UniProt P35790)
Sequence (P35790 50-457 limits assumed, stated change not applied): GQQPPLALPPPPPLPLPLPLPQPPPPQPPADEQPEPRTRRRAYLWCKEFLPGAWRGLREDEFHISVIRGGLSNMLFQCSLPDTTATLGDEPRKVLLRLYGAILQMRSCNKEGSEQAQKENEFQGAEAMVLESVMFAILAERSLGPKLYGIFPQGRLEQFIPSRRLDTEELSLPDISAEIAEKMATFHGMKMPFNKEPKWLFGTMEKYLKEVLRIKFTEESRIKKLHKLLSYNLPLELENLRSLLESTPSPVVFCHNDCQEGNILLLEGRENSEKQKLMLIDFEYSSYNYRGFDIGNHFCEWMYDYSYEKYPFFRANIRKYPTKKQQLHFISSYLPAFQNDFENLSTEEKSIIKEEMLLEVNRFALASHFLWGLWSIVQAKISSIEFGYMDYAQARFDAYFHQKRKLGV
Assay: Enzymatic inhibition of choline kinase activity
Settings: read-out: IC50 of CHKA activity
valueType: pIC50
# log scale: pIC50 equals minus log10 of the concentration in mol/L

In one line, give reported pIC50 of the entry CN(C)c1cc[n+](CCCCCCCCCCCC[n+]2ccc(N(C)C)cc2)cc1 [ICL-CCIC-0019] .
6.57

---

Assay: Plasma pharmacokinetics
Type: in vivo, BALB/c mice
Details: female, BALB/c, mouse, ip; plasma, 10 mg/kg I.P.
valueType: Cmax (µM)
Give the value, in units of µM, as a plain number.

Specify measured Cmax for CN(C)c1cc[n+](CCCCCCCCCCCC[n+]2ccc(N(C)C)cc2)cc1 [ICL-CCIC-0019] .
5.3
